target: Human immunodeficiency virus type 1 integrase (Human immunodeficiency virus 1, UniProt Q7ZJM1)
Sequence (Q7ZJM1 whole entry): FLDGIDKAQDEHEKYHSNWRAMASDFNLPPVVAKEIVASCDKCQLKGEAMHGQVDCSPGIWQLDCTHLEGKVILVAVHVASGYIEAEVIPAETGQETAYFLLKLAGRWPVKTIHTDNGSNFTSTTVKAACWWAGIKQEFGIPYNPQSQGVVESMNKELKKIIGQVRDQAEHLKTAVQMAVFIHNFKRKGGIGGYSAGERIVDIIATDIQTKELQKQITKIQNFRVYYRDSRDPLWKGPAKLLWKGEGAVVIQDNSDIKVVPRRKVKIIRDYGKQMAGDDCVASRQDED
Measured Endpoint: log10(IC50) (log10 of the value in µM)
Hey, these are logged values: log10 of IC50, µM being the unit before logging.

// worked examples, log10(IC50) included
O=C1NC(=S)SC1NS(=O)(=O)c1ccc(/N=N/c2ncccn2)cc1 (stereo not given); 1.15
O=C(Oc1ccc(/C=C/S(=O)(=O)CS(=O)(=O)/C=C/c2ccc(OC(=O)c3ccccc3)c(OC(=O)c3ccccc3)c2)cc1OC(=O)c1ccccc1)c1ccccc1; 2.85
NNS(=O)(=O)c1cccc(OCC(=O)O)c1; 0.94
Cc1ccc(-n2ncnc2-c2nc3ccccc3nc2NS(=O)(=O)c2cc(C(=O)Nc3ccccc3)c(Cl)cc2S)cc1; 1.00
CC(C)c1nc(C(=O)NCc2ccc(F)cc2)c(O)c(=O)n1C; -0.85
Cc1cc2c(cc1Cl)SC(C(=O)c1ccc(F)cc1)=NS2(=O)=O; 1.62
Cc1cc(S(=O)(=O)Nc2nnc3c4scc(C)c4ncn23)c(S)cc1Cl; 0.63
COc1ccc(C(=O)C2=NS(=O)(=O)c3cc(C)c(Cl)cc3S2)cc1; 1.08
Cc1cc2nc3nc(N)nc(NS(=O)(=O)c4cc(C)c(Cl)cc4S)n3c2cc1C; 0.87

Now take the following compound into account.
Inquiry: // query log10(IC50) value for entry O=S(=O)(/C=C/c1ccc(O)c(O)c1O)CS(=O)(=O)/C=C/c1ccc(O)c(O)c1O
Reply text: -0.05
